# assaySummary: Primary qHTS for delayed death inhibitors of the malarial parasite plastid, 96 hour incubation
# conditionNotes: P. falciparum luciferase reporter growth; series mostly up to 28.7 µM
In all, about 320,000 compounds went through this assay and about 22,000 (6.9%) were called active. Roughly 27% stayed inconclusive and do not appear here. The call rests on the fitted dose curve; in most records, active means well fitted inhibition curve with a large enough effect; inconclusive means small, poorly fitted or top-dose-only effect, or another doubt; inactive means no such curve, though single readings can be large or run the other way. The sample holds actives, similar compounds and a random draw of the others, so the mix is not that of the screen.
Possible outcomes: active, inactive

# compound, classAssignment
rows = [
    ("COc1ccc(C(=O)NCC(c2ccco2)N2CCc3ccccc32)cc1OC (stereo not given)", "inactive"),
    ("COC(=O)c1ccc(CN2C(=O)NC(c3ccccc3)(c3ccccc3)C2=O)o1", "inactive"),
    ("CCCC(NC(=O)c1ccccc1)c1nc2ccccc2n1Cc1ccc(C(=O)OC)o1 (stereo not given)", "active"),
    ("COc1cc(C(=O)NCC(c2ccco2)N2CCCC2)ccc1OCc1ccccc1 (stereo not given)", "active"),
    ("CC1Cc2ccccc2N1S(=O)(=O)c1cccc(C(=O)NCC(c2ccco2)N2CCCC2)c1 (stereo not given)", "active"),
]
